Reported growth inhibition values for the following compounds.
Protocol Description: NCI Yeast Anticancer Drug Screen. Data for the mlh1 rad18 strain (AID 175)
Condition Notes: S. cerevisiae mlh1 rad18 strain growth inhibition, hits give high values; at 50.0 µM unless noted
This is part of a sample that, as a whole, favours compounds with a hit. Of some 79,000 tested, about 15% had one in any assay.
Endpoint: growth inhibition (%)

compound="CCCC1([N+]2(C)CCCC2)CS(=O)C1CC (configuration not stated)" quantitative_readout=-13.3
compound="CCCCC(NC(=O)C(C)NC(=O)OCc1ccccc1)C(=O)O (configuration not stated)" quantitative_readout=-9.6
compound=CCOC(=O)/N=N/C(C)(C)OC(C)=O quantitative_readout=-21.1
compound="NC(=O)c1ccccc1NC(=O)C(=O)C(C(=O)c1ccc(Cl)c(Cl)c1)C1OC(=O)c2ccccc21 (configuration not stated)" quantitative_readout=44.6
compound="CC(=O)NC1(NC(C)=O)C2CC(C1Cc1ccccc1)C(C)(C)C2C (configuration not stated)" quantitative_readout=-38.5
compound=N#CNC(N)=NCCO quantitative_readout=-20.6
compound=CCc1ccc(NN=Nc2ccccc2C#N)cc1 quantitative_readout=16.8
compound=CCCCC/C(C=O)=C\c1ccccc1 quantitative_readout=38
compound=CC(C)(C)OC(=O)c1ccccc1C(=O)c1ccccc1 quantitative_readout=-10.8
compound="Cc1ccc(NC(=S)N2CCCC(C)C2)cc1C (configuration not stated)" quantitative_readout=-23.6
compound=C(#Cc1ccccc1)CC#Cc1ccccc1 quantitative_readout=3.05
compound=CCOC(=O)C1=C(C)O/C(=C/c2cccc(Cl)c2)C1=O quantitative_readout=56.1
